Measured values drawn from paper PMC10397247 for this set.

ASSAY_SYSTEM: T1, P2-AA
T1 chain: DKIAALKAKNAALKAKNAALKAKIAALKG
TEST_NAME: two-hybrid library CCmax;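 further: natural log of median RNA to DNA barcode read ratio; higher means stronger binding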
CONDITION_DESCRIPTION: mean of both orientations
Measured interaction score values are reported for all entries that follow.
Respond using a number only.

1) DEIAALEAHNAALHAENAALEAEIAALEG [P1-AA-1HGe-H]    1.8
2) DEIAALEAETAALEAETAALEAEIAALEG [P1-AA-12HAA-T]    2.07
3) DEIAALEAEKAALEAEKAALEAEIAALEG [P1-AA-12HAA-K]    1.75

Q. For the binder DEIAALEAMNAALMAMNAALMAEIAALEG [P1-AA-12HGe-M] , give its measured interaction score value.
A. 1.39
